System: UACC-62
Test: NCI tumour cell line growth inhibition, 48 h
Calls of active or inactive are those of the source. No stated cut-off is given here; in the data, active = GI50 up to about 1.1 µM and inactive = higher.
Quantity Name: GI50

Consider the reported GI50 for these compounds:
INSERT INTO assay_data (compound, observed_result) VALUES
  ('O=C(O)C1=C(C(=O)O)Oc2ccccc2O1', '> 100 µM (inactive)'),
  ('CCC(C#N)(c1ccccc1)N(CCc1ccccc1)C(=O)c1ccccc1 (stereo not given)', '49.5 µM (inactive)'),
  ('CC(=O)OCC1OC(Sc2nc(-c3ccccc3)c(C#N)c(=O)n2C2OC(COC(C)=O)C(OC(C)=O)C(OC(C)=O)C2OC(C)=O)C(OC(C)=O)C(OC(C)=O)C1OC(C)=O (stereo not given)', '> 100 µM (inactive)'),
  ('Cc1nc(-n2nc(-c3ccccc3)cc2-c2ccccc2)sc1C(=O)/C=C/c1cccc([N+](=O)[O-])c1', '13.8 µM (inactive)'),
  ('COC1=C(N2CC2)C(=O)c2nc3n(c2C1=O)CCC3', '1.54 µM (inactive)'),
  ('CN(C)c1n/c(=N/Cc2ccccn2)ss1', '> 10 µM (inactive)'),
  ('O=CN(O)CC(=O)O', '> 100 µM (inactive)'),
  ('COc1cc2nc(-c3cccs3)nc(N3CCN(c4ccccc4C(F)(F)F)CC3)c2cc1OC', '76.7 µM (inactive)');

Request the reported GI50 associated with `O=C(CC(=O)c1ccccc1NC1=Cc2ccccc2C(=O)C1=O)C(=O)NC1=C(Cl)C(=O)c2ccccc2C1=O`
1.85 µM (inactive)

GI50 for `COC(=O)c1ccc2c(O)c(O)ccc2c1` ?
15.9 µM (inactive)
